# System: NCI-H1651
# TEST_NAME: relative viability (nuclei count vs DMSO), 5 days (fraction); higher = more cells survive
# STUDY_CONDITIONS: first compound 0.002 µM
Listed below: relative viability values for each entry.
Answer with a number only.

Known relative viability results, listed for orientation:
{"columns": ["COMPOUND", "relative viability"],
 "data": [
  ["CCNC(=O)c1noc(-c2cc(C(C)C)c(O)cc2O)c1-c1ccc(CN2CCOCC2)cc1 [Luminespib] + O=C(CCCCCCC(=O)Nc1ccccc1)NO [Vorinostat] (partner 1 µM)", 0.516],
  ["CCNC(=O)c1noc(-c2cc(C(C)C)c(O)cc2O)c1-c1ccc(CN2CCOCC2)cc1 [Luminespib] + Nc1ncn([C@H]2C[C@H](O)[C@@H](CO)O2)c(=O)n1 [Decitabine] (partner 2 µM)", 0.612],
  ["CCNC(=O)c1noc(-c2cc(C(C)C)c(O)cc2O)c1-c1ccc(CN2CCOCC2)cc1 [Luminespib] + C[C@@H](Oc1cc(-c2cnn(C3CCNCC3)c2)cnc1N)c1c(Cl)ccc(F)c1Cl [Crizotinib] (partner 1 µM)", 0.85]
]}

From here, focus on the item given below.
I have this compound here, CCNC(=O)c1noc(-c2cc(C(C)C)c(O)cc2O)c1-c1ccc(CN2CCOCC2)cc1 [Luminespib] + Nc1nc2[nH]cc(CCc3ccc(C(=O)N[C@@H](CCC(=O)O)C(=O)O)cc3)c2c(=O)[nH]1 [Pemetrexed] (partner 0.2 µM) , and I need its recorded relative viability. 0.555

###

# System: HCC-827
# TEST_NAME: relative viability (nuclei count vs DMSO), 5 days (fraction); higher = more cells survive
# STUDY_CONDITIONS: first compound 0.001 µM
ATTRIBUTE_MEASURED: relative viability

{"columns": ["COMPOUND", "ATTRIBUTE_MEASURED", "EXPERIMENTAL_VALUE"],
 "data": [
  ["Cc1cn(-c2cc(NC(=O)c3ccc(C)c(Nc4nccc(-c5cccnc5)n4)c3)cc(C(F)(F)F)c2)cn1 [Nilotinib] + CC(=O)c1c(C)c2cnc(Nc3ccc(N4CCNCC4)cn3)nc2n(C2CCCC2)c1=O [Palbociclib] (partner 0.5 µM)", "relative viability", 0.56],
  ["Cc1cn(-c2cc(NC(=O)c3ccc(C)c(Nc4nccc(-c5cccnc5)n4)c3)cc(C(F)(F)F)c2)cn1 [Nilotinib] + O=C(CCCCCCC(=O)Nc1ccccc1)NO [Vorinostat] (partner 1 µM)", "relative viability", 0.835],
  ["Cc1cn(-c2cc(NC(=O)c3ccc(C)c(Nc4nccc(-c5cccnc5)n4)c3)cc(C(F)(F)F)c2)cn1 [Nilotinib] + Nc1ncn([C@H]2C[C@H](O)[C@@H](CO)O2)c(=O)n1 [Decitabine] (partner 2 µM)", "relative viability", 0.303],
  ["Cc1cn(-c2cc(NC(=O)c3ccc(C)c(Nc4nccc(-c5cccnc5)n4)c3)cc(C(F)(F)F)c2)cn1 [Nilotinib] + Cc1nc(NC(=O)N2CCC[C@H]2C(N)=O)sc1-c1ccnc(C(C)(C)C(F)(F)F)c1 [Alpelisib] (partner 2 µM)", "relative viability", 1.1]
]}

Let's switch to this compound now.
Quick check: relative viability of Cc1cn(-c2cc(NC(=O)c3ccc(C)c(Nc4nccc(-c5cccnc5)n4)c3)cc(C(F)(F)F)c2)cn1 [Nilotinib] + O=C(c1cc(Cc2n[nH]c(=O)c3ccccc23)ccc1F)N1CCN(C(=O)C2CC2)CC1 [Olaparib] (partner 8 µM) ? 0.637

###

# System: NCI-H1437
# TEST_NAME: relative viability (nuclei count vs DMSO), 5 days (fraction); higher = more cells survive
# STUDY_CONDITIONS: first compound 0.06325 µM
ATTRIBUTE_MEASURED: relative viability
API doc: respond with a numeric literal and nothing else, no unit.

{"columns": ["COMPOUND", "TARGET_OR_TEST_SYSTEM", "relative viability"],
 "data": [
  ["CCNC(=O)c1noc(-c2cc(C(C)C)c(O)cc2O)c1-c1ccc(CN2CCOCC2)cc1 [Luminespib] + COc1cc2c(Oc3ccc(NC(=O)C4(C(=O)Nc5ccc(F)cc5)CC4)cc3F)ccnc2cc1OCCCN1CCOCC1 [Foretinib] (partner 0.25 µM)", "NCI-H1437", 1.24],
  ["CCNC(=O)c1noc(-c2cc(C(C)C)c(O)cc2O)c1-c1ccc(CN2CCOCC2)cc1 [Luminespib] + CS(=O)(=O)CCNCc1ccc(-c2ccc3ncnc(Nc4ccc(OCc5cccc(F)c5)c(Cl)c4)c3c2)o1 [Lapatinib] (partner 2 µM)", "NCI-H1437", 0.243],
  ["CCNC(=O)c1noc(-c2cc(C(C)C)c(O)cc2O)c1-c1ccc(CN2CCOCC2)cc1 [Luminespib] + CC(=O)Nc1cccc(-n2c(=O)n(C3CC3)c(=O)c3c(Nc4ccc(I)cc4F)n(C)c(=O)c(C)c32)c1 [Trametinib] (partner 0.02 µM)", "NCI-H1437", 0.325],
  ["CCNC(=O)c1noc(-c2cc(C(C)C)c(O)cc2O)c1-c1ccc(CN2CCOCC2)cc1 [Luminespib] + O=C(c1cc(Cc2n[nH]c(=O)c3ccccc23)ccc1F)N1CCN(C(=O)C2CC2)CC1 [Olaparib] (partner 8 µM)", "NCI-H1437", 0.259]
]}

Here is the next item to consider.
What value of relative viability has been reported for the following compound? CCNC(=O)c1noc(-c2cc(C(C)C)c(O)cc2O)c1-c1ccc(CN2CCOCC2)cc1 [Luminespib] + CC(C)C[C@H](NC(=O)[C@H](Cc1ccccc1)NC(=O)c1cnccn1)B(O)O [Bortezomib] (partner 0.002 µM) 0.247

###

# Tested on: COR-L23
# TEST_NAME: relative viability (nuclei count vs DMSO), 5 days (fraction); higher = more cells survive
# STUDY_CONDITIONS: first compound 0.2 µM
ATTRIBUTE_MEASURED: relative viability
Give the value as a plain number.

Use the examples below as a reference point.
{"columns": ["COMPOUND", "EXPERIMENTAL_VALUE"],
 "data": [
  ["CCNC(=O)c1noc(-c2cc(C(C)C)c(O)cc2O)c1-c1ccc(CN2CCOCC2)cc1 [Luminespib] + CC1(C)CCC(c2ccc(Cl)cc2)=C(CN2CCN(c3ccc(C(=O)NS(=O)(=O)c4ccc(N[C@H](CCN5CCOCC5)CSc5ccccc5)c(S(=O)(=O)C(F)(F)F)c4)cc3)CC2)C1 [Navitoclax] (partner 0.5 µM)", 0.0617],
  ["Cc1csc(=NC2CCCCC2)n1/N=C/c1ccc(O)c(O)c1O [MIM1] + Cc1nc(Nc2ncc(C(=O)Nc3c(C)cccc3Cl)s2)cc(N2CCN(CCO)CC2)n1 [Dasatinib] (partner 0.075 µM)", 0.449],
  ["CN1CCN(CCOc2cc(OC3CCOCC3)c3c(Nc4c(Cl)ccc5c4OCO5)ncnc3c2)CC1 [Saracatinib] + CC(=O)Nc1cccc(-n2c(=O)n(C3CC3)c(=O)c3c(Nc4ccc(I)cc4F)n(C)c(=O)c(C)c32)c1 [Trametinib] (partner 0.02 µM)", 0.53]
]}

I would be grateful if you could share the reported relative viability for Cc1csc(=NC2CCCCC2)n1/N=C/c1ccc(O)c(O)c1O [MIM1] + Cc1nc(NC(=O)N2CCC[C@H]2C(N)=O)sc1-c1ccnc(C(C)(C)C(F)(F)F)c1 [Alpelisib] (partner 2 µM) . 0.725

###

# System: NCI-H520
# TEST_NAME: relative viability (nuclei count vs DMSO), 5 days (fraction); higher = more cells survive
# STUDY_CONDITIONS: first compound 8 µM
I'd appreciate it if you marked entries met when relative viability is lower than 0.3 and not met when it is not.

{"columns": ["MOLECULE", "LABEL_VALUE"],
 "data": [
  ["Nc1cccc2c1CN(C1CCC(=O)NC1=O)C2=O (stereo unspecified) [Lenalidomide] + CS(=O)(=O)N1CCN(Cc2cc3nc(-c4cccc5[nH]ncc45)nc(N4CCOCC4)c3s2)CC1 [Pictilisib] (partner 1 µM)", "met"]
]}

Input Nc1cccc2c1CN(C1CCC(=O)NC1=O)C2=O (stereo unspecified) [Lenalidomide] + CCNC(=O)c1noc(-c2cc(C(C)C)c(O)cc2O)c1-c1ccc(CN2CCOCC2)cc1 [Luminespib] (partner 0.01 µM) ; condition: relative viability strictly below 0.3. Does it hold? met

Please indicate whether the reported relative viability of Nc1cccc2c1CN(C1CCC(=O)NC1=O)C2=O (stereo unspecified) [Lenalidomide] + O=C(c1cc(Cc2n[nH]c(=O)c3ccccc23)ccc1F)N1CCN(C(=O)C2CC2)CC1 [Olaparib] (partner 8 µM) is strictly below 0.3. not met

###

# System: NCI-H1993
# TEST_NAME: relative viability (nuclei count vs DMSO), 5 days (fraction); higher = more cells survive
# STUDY_CONDITIONS: first compound 6.325 µM
Below, each entry is listed alongside its reported relative viability.
# respond with the number and nothing more

Look over these answered cases.
{"columns": ["COMPOUND", "ATTRIBUTE_MEASURED", "EXPERIMENTAL_VALUE"],
 "data": [
  ["Cc1csc(=NC2CCCCC2)n1/N=C/c1ccc(O)c(O)c1O [MIM1] + CCNC(=O)c1noc(-c2cc(C(C)C)c(O)cc2O)c1-c1ccc(CN2CCOCC2)cc1 [Luminespib] (partner 0.01 µM)", "relative viability", 0.633],
  ["Cc1csc(=NC2CCCCC2)n1/N=C/c1ccc(O)c(O)c1O [MIM1] + COc1cc2c(Oc3ccc(NC(=O)C4(C(=O)Nc5ccc(F)cc5)CC4)cc3F)ccnc2cc1OCCCN1CCOCC1 [Foretinib] (partner 0.25 µM)", "relative viability", 0.659],
  ["Cc1csc(=NC2CCCCC2)n1/N=C/c1ccc(O)c(O)c1O [MIM1] + CS(=O)(=O)N1CCN(Cc2cc3nc(-c4cccc5[nH]ncc45)nc(N4CCOCC4)c3s2)CC1 [Pictilisib] (partner 1 µM)", "relative viability", 0.776],
  ["Cc1csc(=NC2CCCCC2)n1/N=C/c1ccc(O)c(O)c1O [MIM1] + Nc1nc2[nH]cc(CCc3ccc(C(=O)N[C@@H](CCC(=O)O)C(=O)O)cc3)c2c(=O)[nH]1 [Pemetrexed] (partner 0.2 µM)", "relative viability", 0.481],
  ["Cc1csc(=NC2CCCCC2)n1/N=C/c1ccc(O)c(O)c1O [MIM1] + C[C@]1(O)C[C@@H](c2nc(-c3ccc4ccc(-c5ccccc5)nc4c3)c3c(N)nccn32)C1 [Linsitinib] (partner 1 µM)", "relative viability", 0.68]
]}

Reported relative viability for NCI-H1993, given Cc1csc(=NC2CCCCC2)n1/N=C/c1ccc(O)c(O)c1O [MIM1] + COc1cccc2cc(-c3nc([C@H]4CC[C@H](C(=O)O)CC4)n4ncnc(N)c34)[nH]c12 [OSI-027] (partner 0.5 µM) ? 0.518

src = the supplement of paper PMC10307832
